Data provenance is PubChem BioAssay (EPA / NIEHS).

Experiment: ATG_M_32_CIS: Attagene CIS-FACTORIAL HepG2 Assay for M32 Transcription Factor (Internal Marker) (AID 2282949);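 note: background control marker of the multiplexed CIS panel rather than a real target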
Settings: HepG2 Attagene cis-factorial M32 reporter, mRNA; actives raise or lower the signal
Method: ATG_CIS is a cell-based, multiplexed-readout assay that uses HepG2, a human liver cell line, with measurements taken at 24 hours after chemical dosing in a 24-well plate.ATG_M_32_CIS is one of 52 assay component(s) measured or calculated from the ATG_CIS assay. […] This assay endpoint, ATG_M_32_CIS, was analyzed with bidirectional fitting relative to DMSO as the negative control and baseline of activity. […]
Calls of active or inactive are those of the source. Rule for the calls: active = hit-call score of the fitted dose curve at least 0.9, where 1 is the maximum; inactive = score below 0.9.
Labels: active, inactive

{"COMPOUND": "CCCCCCCCCCCCCCCCO", "CAT": "inactive"}
{"COMPOUND": "O=C(O)c1cccnc1", "CAT": "inactive"}
{"COMPOUND": "Cc1cn([C@H]2C=C[C@@H](CO)O2)c(=O)[nH]c1=O", "CAT": "inactive"}
{"COMPOUND": "CC(C)(C)c1ccccc1", "CAT": "inactive"}
{"COMPOUND": "C/C=C/C=C/C(=O)O", "CAT": "inactive"}
{"COMPOUND": "Nc1nc(Cl)nc2c1ncn2[C@H]1C[C@H](O)[C@@H](CO)O1", "CAT": "inactive"}
{"COMPOUND": "CCCC[C@H]1CN(CC2CCOCC2)C(=O)OC12CCN(C1(C)CCN(C(=O)c3c(C)ncnc3C)CC1)CC2", "CAT": "inactive"}
{"COMPOUND": "CC(=O)CC(c1ccccc1)c1c(O)c2ccccc2oc1=O (stereo unspecified)", "CAT": "inactive"}
{"COMPOUND": "CS(=O)(=O)c1ccc([C@@H](C[C@H]2CCC(=O)C2)C(=O)Nc2cnccn2)cc1Cl", "CAT": "inactive"}
{"COMPOUND": "Oc1ccc(O)cc1", "CAT": "inactive"}
{"COMPOUND": "NC=O", "CAT": "inactive"}
{"COMPOUND": "Nc1nc(=S)c2[nH]cnc2[nH]1", "CAT": "inactive"}
{"COMPOUND": "CSc1ccc(Oc2ccc(S(N)(=O)=O)cc2CN(C)C)cc1C", "CAT": "inactive"}
{"COMPOUND": "CCCCOC(=O)CCCCC(=O)OCCCC", "CAT": "inactive"}
{"COMPOUND": "Cc1ccc(C(C)(C)C)c(O)c1", "CAT": "inactive"}
{"COMPOUND": "O=C(N[C@@H](c1ccccc1)[C@@H]1CCCCN1)c1cccc(C(F)(F)F)c1Cl", "CAT": "inactive"}
{"COMPOUND": "CCN(CC)CCOc1ccc(C(=C(Cl)c2ccccc2)c2ccccc2)cc1", "CAT": "inactive"}
{"COMPOUND": "CC(=O)[C@@]1(O)CC[C@H]2[C@@H]3CCC4=CC(=O)CC[C@]4(C)[C@H]3CC[C@@]21C", "CAT": "inactive"}
{"COMPOUND": "O=NO", "CAT": "inactive"}
{"COMPOUND": "CC1=C(C)S(=O)(=O)CCS1(=O)=O", "CAT": "inactive"}
{"COMPOUND": "CC(=O)S[C@H](C(=O)N[C@H]1Cc2ccccc2[C@H]2CCC[C@@H](C(=O)O)N2C1=O)C(C)C", "CAT": "inactive"}
{"COMPOUND": "O=Cc1ccccc1C=O", "CAT": "inactive"}
{"COMPOUND": "CC(C)c1cccc(C(C)C)c1", "CAT": "inactive"}
{"COMPOUND": "Cc1c(C)c2c(c(C)c1O)CCC(C)(COc1ccc(CC3SC(=O)NC3=O)cc1)O2 (stereo unspecified)", "CAT": "inactive"}
{"COMPOUND": "CC(C)OC(=O)C(C)(C)Oc1ccc(C(=O)c2ccc(Cl)cc2)cc1", "CAT": "inactive"}
{"COMPOUND": "CN(C)C(=O)NC1(c2ccccc2)CCN(CC[C@@]2(c3ccc(F)c(F)c3)CN(C(=O)c3ccccc3)CCO2)CC1", "CAT": "inactive"}
{"COMPOUND": "CCc1cc(C2=C(C(=O)O)N(c3ccccc3C(F)(F)F)S(=O)(=O)c3ccccc32)cc2c1OCO2", "CAT": "inactive"}
{"COMPOUND": "C#CC(O)C(CC)CCCC (stereo unspecified)", "CAT": "active"}
{"COMPOUND": "CC(=O)O[C@]1(C(C)=O)CC[C@H]2[C@@H]3C=C(Cl)C4=CC(=O)[C@@H]5C[C@@H]5[C@]4(C)[C@H]3CC[C@@]21C", "CAT": "inactive"}
{"COMPOUND": "CCCCC(CC)CO (stereo unspecified)", "CAT": "inactive"}
{"COMPOUND": "CCCCC(CC)COC(=O)CCCCCCCC(=O)OCC(CC)CCCC (stereo unspecified)", "CAT": "inactive"}
{"COMPOUND": "NCCOCCOCCN", "CAT": "inactive"}
{"COMPOUND": "CC(N)=O", "CAT": "inactive"}
{"COMPOUND": "CCCCC(CC)COP(=O)(OCC(CC)CCCC)OCC(CC)CCCC (stereo unspecified)", "CAT": "inactive"}
{"COMPOUND": "S=c1[nH]c2ccccc2s1", "CAT": "inactive"}
{"COMPOUND": "C=CCc1ccc(OC)c(OC)c1", "CAT": "inactive"}
{"COMPOUND": "N[C@@H](Cc1c[nH]c2ccccc12)C(=O)O", "CAT": "inactive"}
{"COMPOUND": "CCCCCCCCCC[N+](C)(C)[O-]", "CAT": "inactive"}
{"COMPOUND": "Cc1cc(SC2=C(O)C[C@@](CCc3ccc(N)cc3)(C(C)C)OC2=O)c(C(C)(C)C)cc1CO", "CAT": "inactive"}
{"COMPOUND": "O=C1O[C@H]([C@H](O)CO)C(O)=C1O", "CAT": "inactive"}
{"COMPOUND": "CC(=O)OC1CC(C)OC(C)O1 (stereo unspecified)", "CAT": "inactive"}
{"COMPOUND": "CC(C)c1cccc(C(C)C)c1NC(=O)NS(=O)(=O)c1cc(C(C)(C)O)co1", "CAT": "inactive"}
{"COMPOUND": "CC(COCC(C)OC(=O)c1ccccc1)OC(=O)c1ccccc1 (stereo unspecified)", "CAT": "inactive"}
{"COMPOUND": "Cn1cnc2c1c(=O)[nH]c(=O)n2C", "CAT": "inactive"}
{"COMPOUND": "NC1CCCCC1", "CAT": "inactive"}
{"COMPOUND": "Oc1ccccc1O", "CAT": "inactive"}
